molecular target: Nuclear receptor coactivator 1 (Homo sapiens); test: SRC1 coactivator transcriptional activity inhibitors, confirmation, cell-based, luminescence, quadruplicate (AID 588820); settings: HEK293 GAL4-SRC1 luciferase reporter, at 3.6 µM, active compounds read high;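 note: 0% = DMSO wells and 100% = gossypol 36 µM treated wells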
Think of 20% as a floor: if inhibition stands on it or above, it is 1.0; beneath it, 0.0.

In [3]: df
Out[3]:
                                    compound  label
 0           Cc1ccc(Nc2nc(N)nc(CCl)n2)c(C)c1    1.0
 1  Cn1c(=O)c2[nH]c(COc3ccc(C(C)(C)C)cc3)nc2n(C)c1=O    1.0
 2  CO/N=C/C(c1ccc(Cl)nc1)S(=O)(=O)c1ccccc1 (centres undefined)    0.0
 3                      CNc1cccnc1C=NNC(N)=S    1.0
 4  Nc1c(C(=O)c2ccccc2)sc2nsc(SCCN3CCCC3)c12    0.0
 5  O=C1CCC/C1=c1\s/c(=C/c2cccnc2)c(=O)n1-c1ccccc1    1.0
 6  CCCCC(=O)NC(c1ccc(N(C)C)cc1)c1ccc2cccnc2c1O (centres undefined)    1.0
 7  Cc1ccc(S(=O)(=O)N(C)C)cc1NC(=O)c1cncc(Br)c1    0.0
 8  COc1ccccc1-c1cc2nc(-c3ccccc3)cc(N3CCN(C(=O)c4ccco4)CC3)n2n1    0.0
 9    CCOC(=O)NNC(=O)CCn1c2c(c3ccccc31)CCCC2    1.0
10  Cc1ccc(C(C)C)c(OCc2ccc(C(=O)N/N=C/c3ccc(O)cc3O)cc2)c1    1.0
11  COc1ccc(S(=O)(=O)N2CCOC23CCN(S(=O)(=O)c2ccc(Cl)cc2)CC3)cc1    0.0
12  Cn1c(/C=C/c2ccc(Cl)cc2)c([N+](=O)[O-])c(=O)n(C)c1=O    1.0
13  CC1CCc2nc(NC(=O)C3COc4ccccc4O3)sc2C1 (centres undefined)    0.0

* * *

biological target: Nuclear receptor coactivator 3 (Homo sapiens); experiment: SRC3 coactivator transcriptional activity inhibitors, confirmation, cell-based, luminescence, quadruplicate (AID 588792); conditions: HEK293 GAL4-SRC3 luciferase reporter, at 3.6 µM, active compounds read high;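 note: 0% = DMSO treated cells and 100% = gossypol at 36 µM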
Reported metric: inhibition (%)

In [3]: df
Out[3]:
                                    compound  data_value
 0  CN(C)c1cc[n+](CC(=O)Nc2ccc(Oc3ccccc3)cc2)cc1        15.7
 1            COc1ccc(CCNc2ncnc3sccc23)cc1OC          12
 2  O=[N+]([O-])c1cc(S(=O)(=O)NCCN2CCOCC2)ccc1Sc1nnnn1-c1ccccc1        12.9
 3  CCN(CC)CCCNc1nc2ccccc2c2nc(-c3ccncc3)nn12       -2.05
 4  COc1ccc(/C=N/NC(=S)Nc2ccccc2[N+](=O)[O-])cc1O       -21.4
 5  O=C(N/N=C/c1sc(N2CCOCC2)nc1-c1ccccc1)c1cccc(S(=O)(=O)N2CCOCC2)c1        38.1
 6  COc1ccc(NC(=O)c2cc(C3CC3)nc3c2cnn3C(C)C)cc1OC       -12.8
 7  Cn1cc(C(=O)N/N=C/c2c(O)ccc3ccccc23)ccc1=O        52.8
 8    COc1ccc(OC)c(Cc2cnc3nc(N)nc(N)c3c2C)c1          67
 9  Cn1c(=O)n(C)c2cc(NS(=O)(=O)c3ccc(C(C)(C)C)cc3)ccc21        16.6
10        CC(C)CCOc1cccc(OCC(=O)Nc2ccncc2)c1       -1.73
11      COC(=O)/C=C/C(=O)Nc1cccc(C(F)(F)F)c1        4.81
12                    NNC(=O)c1cc2ccccc2cc1O        67.7
13  Cc1cc(C(=O)NC2CCCc3c2cnn3-c2ccc(C)c(C)c2)n(C)n1 (stereo not given)        21.1
14  CN[C@H]1CCc2cc(OC)c(OC)c(OC)c2-c2ccc(OC)c(=O)cc21        40.5

* * *

test: STAT3 reporter inhibitors, retest of hits, confirmation, U3A cells, luciferase, luminescence (AID 1265); conditions: IL-6 STAT3 luciferase reporter, at 5.7 µM, active compounds read high, cell line lacks STAT1;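 note: 0% = IL-6 plus DMSO and 100% = IL-6 plus nifuroxazide control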
The other results are listed elsewhere or left out.
Note: every record was labeled by where its inhibition sits among low group = under 20%, middle group = from 20% up to 40%, high group = 40% and over

In [3]: df
Out[3]:
                                    molecule         label
 0          CCCCCc1ccc(-c2ccc(C(=O)O)cc2)nc1  middle group
 1         O=c1c2c(nc3n1CCCCC3)sc1c(O)cccc12    high group
 2      Cc1ccc2cc3cc(C(=O)N4CCCCCC4)oc3nc2c1     low group
 3  Cc1ccc(-c2cc(C(=O)N/N=C/C=C/c3ccco3)c3ccccc3n2)cc1C     low group
 4           O=c1oc(/C=C/c2ccccc2)nc2ccccc12     low group
 5       CC(C)OCCCNc1ncnc2c1[nH]c1ccc(F)cc12    high group
 6        O=C(Nc1nc2ccccc2s1)c1ccc2c(c1)OCO2    high group
 7  Cn1c(CN2CCOCC2)nc2cc(NC(=O)c3ccc(Cl)cc3)ccc21    high group
 8           CCOc1ccc(-c2nnc(-c3ccco3)o2)cc1    high group
 9             COc1cccc(-c2nc3cc(C)ccc3o2)c1     low group
10        O=C(Nc1ccc(Cl)cn1)c1ccc2c(c1)OCCO2  middle group
11  O=C(Nc1cccc(S(=O)(=O)Nc2ccc(Cl)cc2)c1)c1ccc2c(c1)OCCO2    high group
12  CN(C)S(=O)(=O)c1ccc(NC(=O)COC(=O)c2n[nH]c3ccccc23)cc1  middle group
13  COc1cc(N=Cc2c(O)[nH]c3ccccc23)cc(OC)c1OC    high group
14  Oc1c(Cl)cc(Cl)c(Cl)c1Cc1c(O)c(Cl)cc(Cl)c1Cl    high group
15             CCSc1nnc(NC(=O)c2ccc(C)cc2)s1  middle group
16           COc1ccc(-c2csc(Nc3ccccn3)n2)cc1     low group
17           OCCn1c(-c2ccccc2)csc1=Nc1ccccc1     low group
18   CCOc1cccc(/C=C/c2ccc3ccccc3n2)c1OC(C)=O     low group
19  CC(C)C[C@@H](N)c1nnc(SCC(=O)c2ccc(Cl)cc2)o1  middle group
20              Cc1csc(SCC(=O)Nc2sccc2C#N)n1     low group
21                    N=C(N)SCc1cccc2ccccc12  middle group
22  Cc1ccc2nc(-c3ccc(NC(=O)c4cccnc4)cc3)oc2c1  middle group
23  CCN(CC)c1ccc(/C=N/Nc2nc(C)cc(=O)[nH]2)cc1  middle group
24  CCN1/C(=C\c2ccc3ccccc3[n+]2CC)Sc2cc(C)ccc21    high group
25  Cc1ccc(F)cc1NC(=O)Cc1nn(C)c(=O)c2ccccc12    high group
26  O=C1NC(Nc2nc3ccccc3s2)(C(F)(F)F)C(=O)N1C1CCCCC1 (centres undefined)    high group
27       c1ccc2[nH]c(-c3nc4ccccc4[nH]3)nc2c1     low group
28  COc1ccc(S(=O)(=O)Nc2ccc3oc(C)c(C(C)=O)c3c2)cc1  middle group
29            CCCOc1ccc(C(=O)NCCc2ccccc2)cc1     low group
30  CN(Cc1cccnc1)C(=O)c1cc(COc2ccc3ncccc3c2)on1    high group
31  Cc1nc(CNS(=O)(=O)c2ccc(Oc3ccccc3)cc2)cs1    high group

* * *

biological target: Steroidogenic factor 1 (Homo sapiens); assay: SF1 (NR5A1) inverse agonists, counter-screen for LRH-1 inverse agonist project, cell-based, luminescence, high throughput (AID 651614); conditions: cell-based SF1 luciferase reporter, at 3.6 µM, active compounds read high;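 note: cells cotransfected with StAR promoter reporter and SF1 expression vector; 0% = vehicle on cells with receptor and 100% = vehicle on cells lacking receptor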
Assign classes using reported inhibition values and the ranges lower level (below 50%), middle level (50% to below 60%), upper level (60% or more), please.

In [3]: df
Out[3]:
                                    compound         label
 0  CC1(C)Cc2c(sc3nc(SCC(=O)NCc4ccco4)n(-c4ccccc4)c(=O)c23)CS1   lower level
 1      CCCc1cc(NCCOCCO)n2c(nc3ccccc32)c1C#N   lower level
 2        NC(=S)N/N=C/c1ccc([N+](=O)[O-])cc1   lower level
 3  CCOc1ccc(CCNC(=O)COC(=O)Cc2c[nH]c3ccccc23)cc1OCC  middle level
 4  COc1ccccc1Cc1c(-c2ccc(OC)c(OC)c2)nc2c3ccccc3ccn12   lower level
 5  CCc1nc(SCC(=O)N2CCc3cc(OC)c(OC)cc3C2)c(C#N)cc1C   lower level
 6  CCC[N+]1(CC#CCC(c2ccccc2)c2ccccc2)CCCCC1   upper level
 7  O=C(NC(Nc1nc2ccc([N+](=O)[O-])cc2s1)(C(F)(F)F)C(F)(F)F)c1ccccc1   upper level
 8  Cc1ccc(S(=O)(=O)N(C)C)cc1NC(=O)c1cncc(Br)c1   lower level
 9  CNC(=O)c1nc(C)c(C2(C)CC(c3cccc([N+](=O)[O-])c3)=NO2)s1 (centres undefined)   lower level
10           CC(=O)Nc1ncc(Cc2cc(Cl)ccc2Cl)s1   lower level
11  O=C(Cn1ccc(=O)[nH]c1=O)c1ccc([N+](=O)[O-])o1   lower level
12      CN(c1ccc2nc3ccccc3c(=O)n2n1)C1CCCCC1  middle level
13  O=C(CSc1nnc(Cc2cccs2)n1Cc1ccco1)Nc1ccc(Cl)cc1Cl   lower level
14  Cc1ccc(NC2=C(N3CCCCC3)C(=O)c3ccccc3C2=O)cc1   lower level
15      Cc1ccc(C(=O)O/N=C(\N)c2ccccn2)c(C)c1   lower level
16  COc1ccc(C2=NS(=O)(=O)N(C)C(C(=O)N3CCc4ccccc4C3)=C2)cc1OC   lower level
17  O=C(CC1C(=O)NCCN1C(=S)Nc1ccccc1)Nc1ccc2c(c1)OCCO2 (centres undefined)   upper level
18  OCC1OC(n2cnc3c(NCc4ccco4)ncnc32)C(O)C1O (centres undefined)   upper level
19    CCCC(=O)Nc1sc2c(c1C(=O)Nc1ccccn1)CCCC2  middle level
20  COc1ccc(C[C@@H]2OC3(C=CC(=O)C=C3)O[C@H]2Cc2ccc(OC)cc2)cc1   upper level
21            O=C1C=C(N2CCCCCC2)C2(CCCCC2)O1  middle level
22  CCOc1ccc(NC(=O)CN2CCN(CC(=O)Nc3ccc(OC)cc3)CC2)cc1  middle level
23  Cn1c(=O)n(C)c2cc(NC(=O)CSc3nnc(-c4ccccc4O)n3-c3ccccc3)ccc21  middle level
24  CCOc1ccc(S(=O)(=O)Nc2nc3ccccc3nc2N2CCN(C)CC2)cc1   lower level
